SYSTEM_UNDER_TEST: UniProtKB P08842
ASSAY_PROCEDURE: Inhibition of STS in human JEG3 cells at 100 uM using [6,7-3H]E1S as substrate after 3 hrs by liquid scintillation spectrometry
Format: cell-based
Active and inactive are the calls of the source. The rule behind the calls is not given here.

{"MOL": "COc1cc2c(cc1OS(N)(=O)=O)NC(=O)N(Cc1ccccc1C)C2", "inhibition": "20 to 25%"}
{"MOL": "COc1cc2c(cc1OS(N)(=O)=O)NC(=O)N(Cc1cccc(Cl)c1)C2", "inhibition": "70 to 80%"}
{"MOL": "COc1cc(CN2CCc3cc(O)ccc3C2)cc(OC)c1OC", "inhibition": "Active"}
{"MOL": "CCc1cc2c(cc1OS(N)(=O)=O)CCN(Cc1cc(Br)c(OC)c(OC)c1)C2", "inhibition": "Active"}
{"MOL": "COc1cc2c(cc1OS(N)(=O)=O)NC(=O)N(Cc1ccccc1)C2", "inhibition": "inactive"}
{"MOL": "COc1cc2c(cc1O)CCN(Cc1cc(Br)c(OC)c(OC)c1)C2", "inhibition": "Active"}
{"MOL": "COc1cc(CN2CCc3cc(OS(N)(=O)=O)ccc3C2)cc(OC)c1OC", "inhibition": "Active"}
{"MOL": "COc1cc2c(cc1OS(N)(=O)=O)NC(=O)N(Cc1cccc(OC)c1OC)C2", "inhibition": "inactive"}
{"MOL": "COc1cc2c(cc1OS(N)(=O)=O)NC(=O)N(Cc1ccccc1F)C2", "inhibition": "20 to 25%"}
{"MOL": "COc1cc2c(cc1OS(N)(=O)=O)NC(=O)N(Cc1cc(OC)c(OC)c(OC)c1)C2", "inhibition": "inactive"}
{"MOL": "CCc1cc2c(cc1OS(N)(=O)=O)CCN(Cc1cc(OC)c(OC)c(OC)c1)C2", "inhibition": "Active"}
{"MOL": "COc1ccccc1CN1Cc2cc(OC)c(OS(N)(=O)=O)cc2NC1=O", "inhibition": "70 to 80%"}

---

SYSTEM_UNDER_TEST: Steryl-sulfatase (Homo sapiens)
Sequence (whole entry): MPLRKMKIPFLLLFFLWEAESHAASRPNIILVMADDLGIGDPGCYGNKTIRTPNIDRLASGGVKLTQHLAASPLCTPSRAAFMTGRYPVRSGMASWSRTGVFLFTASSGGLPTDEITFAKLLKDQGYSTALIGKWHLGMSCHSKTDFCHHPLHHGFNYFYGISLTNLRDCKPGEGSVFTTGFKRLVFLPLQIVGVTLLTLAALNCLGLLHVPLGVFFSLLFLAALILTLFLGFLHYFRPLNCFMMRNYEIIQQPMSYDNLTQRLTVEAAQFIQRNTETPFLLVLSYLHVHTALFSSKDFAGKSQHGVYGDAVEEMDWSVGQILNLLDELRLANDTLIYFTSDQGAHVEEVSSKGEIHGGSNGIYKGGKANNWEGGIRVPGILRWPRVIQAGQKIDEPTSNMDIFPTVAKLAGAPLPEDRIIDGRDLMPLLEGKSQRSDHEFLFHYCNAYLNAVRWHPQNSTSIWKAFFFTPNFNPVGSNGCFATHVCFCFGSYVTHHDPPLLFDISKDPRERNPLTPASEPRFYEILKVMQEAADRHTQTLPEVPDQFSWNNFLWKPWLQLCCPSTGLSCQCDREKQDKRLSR
ASSAY_PROCEDURE: Inhibition of STS in human JEG3 cells at 100 uM using [6,7-3H]E1S as substrate after 3 hrs by liquid scintillation spectrometry
Type: cell-based
Calls of active or inactive are those of the source. The rule behind the calls is not given here.

{"MOL": "COc1ccc(OC)c(CN2Cc3cc(OC)c(OS(N)(=O)=O)cc3NC2=O)c1", "inhibition": "inactive"}
{"MOL": "COc1cc2c(cc1OS(N)(=O)=O)NC(=O)N(Cc1ccccc1Cl)C2", "inhibition": "70 to 80%"}
{"MOL": "COc1cc2c(cc1OS(N)(=O)=O)CCN(Cc1cc(Br)c(OC)c(OC)c1)C2", "inhibition": "45%"}
{"MOL": "COc1ccc(OC)c(CN2Cc3cc(OC)c(O)cc3NC2=O)c1", "inhibition": "inactive"}
{"MOL": "COc1ccc(CN2Cc3cc(OC)c(OS(N)(=O)=O)cc3NC2=O)cc1", "inhibition": "inactive"}
